# Test system: Saccharomyces cerevisiae
# RUN DESCRIPTION: protein stability index of tFT-peptide fusion (C-terminal peptide) (PSI (0-1 scale)); higher = more stable (slower turnover)
# PARTICULARS: genetic background: wild type; temperature: 30 C
MEASURED QUANTITY: protein stability index

INSERT INTO results (polymer_sequence, measured_target, recorded_value) VALUES
  ('PYKSTELRSVAN [YDL187C C-terminal 12 aa]', 'Saccharomyces cerevisiae', 0.742),
  ('MTSLDICALGIK [RVS161 C-terminal 12 aa]', 'Saccharomyces cerevisiae', 0.675),
  ('ENFNEVFEAIRS [RSC3 C-terminal 12 aa]', 'Saccharomyces cerevisiae', 0.709),
  ('DWQNGQVEDSIP [PEX14 C-terminal 12 aa]', 'Saccharomyces cerevisiae', 0.672),
  ('EMTHSLFKKYGI [CRC1 C-terminal 12 aa]', 'Saccharomyces cerevisiae', 0.722),
  ('QWMNEMVERWAN [SOH1 C-terminal 12 aa]', 'Saccharomyces cerevisiae', 0.7);

###

# Tested on: Saccharomyces cerevisiae
# RUN DESCRIPTION: protein stability index of tFT-peptide fusion (C-terminal peptide) (PSI (0-1 scale)); higher = more stable (slower turnover)
# PARTICULARS: genetic background: wild type; temperature: 30 C
# cutoff 0.3 applies to protein stability index; >= gives 1, < gives -1

INSERT INTO measurements (polymer_sequence, qualitative_label) VALUES
  ('CTLVVGLFVLVV', -1),
  ('SFVCFFLNLFVY', -1),
  ('HVPPVFQASLSP', 1),
  ('KYQVIILQTRKI', -1),
  ('PFPTPPPIPRSP', 1),
  ('TFRVLAFFCRVV', -1),
  ('LFLLSHYALCFY', 1),
  ('FVIVSSCIGYAL', 1),
  ('ECLRLTTKKKIN', -1);

###

# Tested on: Saccharomyces cerevisiae
# RUN DESCRIPTION: protein stability index of tFT-peptide fusion (C-terminal peptide) (PSI (0-1 scale)); higher = more stable (slower turnover)
# PARTICULARS: genetic background: wild type; temperature: 30 C
protein stability index values by entry
MEASURED QUANTITY: protein stability index

INSERT INTO results (polymer_sequence, measured_target, recorded_value) VALUES
  ('LDLSSVFILYFN', 'Saccharomyces cerevisiae', 0.374),
  ('GCCGGGGVEGLE', 'Saccharomyces cerevisiae', 0.695),
  ('RIKAKKNKTMKR', 'Saccharomyces cerevisiae', 0.655),
  ('SCTPEDGRVRYT', 'Saccharomyces cerevisiae', 0.66),
  ('PSPSLYPPASPP', 'Saccharomyces cerevisiae', 0.654),
  ('LLLLFLCSPSSL', 'Saccharomyces cerevisiae', 0.496),
  ('NKQTKTQPTKKE', 'Saccharomyces cerevisiae', 0.725),
  ('ILCQLRKFKFQN', 'Saccharomyces cerevisiae', 0.58),
  ('PPAPLHLPSLPR', 'Saccharomyces cerevisiae', 0.705),
  ('LLFGCLIRIGCS', 'Saccharomyces cerevisiae', 0.35),
  ('SGCPGPNVPRVP', 'Saccharomyces cerevisiae', 0.705),
  ('KRKEKKKEKRRK', 'Saccharomyces cerevisiae', 0.714),
  ('KKIEKENKKEKF', 'Saccharomyces cerevisiae', 0.611),
  ('CLCPPPPLPVPR', 'Saccharomyces cerevisiae', 0.699),
  ('WQIGIYILQGLA', 'Saccharomyces cerevisiae', 0.256),
  ('PSFFFFAAPLPL', 'Saccharomyces cerevisiae', 0.623),
  ('APLFASSASIPL', 'Saccharomyces cerevisiae', 0.716),
  ('ILPPPPPPPPPF', 'Saccharomyces cerevisiae', 0.714),
  ('SVMWEARTEDGS', 'Saccharomyces cerevisiae', 0.756),
  ('ATQPPPPPLPPI', 'Saccharomyces cerevisiae', 0.636),
  ('LRLIPPLTTFDY', 'Saccharomyces cerevisiae', 0.645),
  ('FLRKHVLRLRPP', 'Saccharomyces cerevisiae', 0.594),
  ('FGFGYAVSFLVG', 'Saccharomyces cerevisiae', 0.6),
  ('RTWGGKKHKKRK', 'Saccharomyces cerevisiae', 0.716),
  ('RKQLSCIMIWCK', 'Saccharomyces cerevisiae', 0.298),
  ('LPAPPPLPPPHP', 'Saccharomyces cerevisiae', 0.712),
  ('VLMVIPRAQVLL', 'Saccharomyces cerevisiae', 0.697),
  ('DEEVGWGRGVGW', 'Saccharomyces cerevisiae', 0.72),
  ('TLSQILVSSSLS', 'Saccharomyces cerevisiae', 0.59),
  ('PFPLPPPPFHPP', 'Saccharomyces cerevisiae', 0.691),
  ('LEGGAGRPDGTG', 'Saccharomyces cerevisiae', 0.671),
  ('SFPPPLPPSPTP', 'Saccharomyces cerevisiae', 0.697),
  ('FLSWGSGVFGLL', 'Saccharomyces cerevisiae', 0.671),
  ('GIGSSKESGGLW', 'Saccharomyces cerevisiae', 0.737),
  ('LTSPPPPPARVP', 'Saccharomyces cerevisiae', 0.739),
  ('TPNYPLHPTKKI', 'Saccharomyces cerevisiae', 0.681),
  ('LFYVSFLFMLLF', 'Saccharomyces cerevisiae', 0.378),
  ('GGRGWEGRGGSG', 'Saccharomyces cerevisiae', 0.684),
  ('RMCLDYSFDSLL', 'Saccharomyces cerevisiae', 0.673),
  ('CAEFLFSTVLYP', 'Saccharomyces cerevisiae', 0.735),
  ('DRRRGVGESSFG', 'Saccharomyces cerevisiae', 0.703),
  ('GIRVEWVGRNRC', 'Saccharomyces cerevisiae', 0.676),
  ('YRVPWIVESFVD', 'Saccharomyces cerevisiae', 0.751),
  ('FRPPFRSAPLSP', 'Saccharomyces cerevisiae', 0.679),
  ('VMLWAGLFGSSV', 'Saccharomyces cerevisiae', 0.634),
  ('LKRSYKKQRDNV', 'Saccharomyces cerevisiae', 0.698),
  ('PPPLSSPGPPPL', 'Saccharomyces cerevisiae', 0.704),
  ('GGGGGGSTPALG', 'Saccharomyces cerevisiae', 0.667),
  ('TPVPPLLSRCYP', 'Saccharomyces cerevisiae', 0.691),
  ('CAASLSHKSAPY', 'Saccharomyces cerevisiae', 0.768),
  ('GWGVFFVMRIQV', 'Saccharomyces cerevisiae', 0.34),
  ('CLSPAFGCWWIV', 'Saccharomyces cerevisiae', 0.582),
  ('LSPCCFLTSSSF', 'Saccharomyces cerevisiae', 0.71),
  ('WPPPPPPPASPH', 'Saccharomyces cerevisiae', 0.719),
  ('RVFRRFCCVISM', 'Saccharomyces cerevisiae', 0.366),
  ('SVKRVVPCLVSC', 'Saccharomyces cerevisiae', 0.45),
  ('PSTSHLALSWSV', 'Saccharomyces cerevisiae', 0.703),
  ('GAPRYRLQRPVP', 'Saccharomyces cerevisiae', 0.672),
  ('IKLCRSTVVTGV', 'Saccharomyces cerevisiae', 0.592),
  ('GIFVWWFWGCCG', 'Saccharomyces cerevisiae', 0.399),
  ('PPPVAPRSPAHL', 'Saccharomyces cerevisiae', 0.713),
  ('GVMSICRWMISV', 'Saccharomyces cerevisiae', 0.374),
  ('LHFYSLMEFQCD', 'Saccharomyces cerevisiae', 0.695),
  ('GAGRRRAQEQQT', 'Saccharomyces cerevisiae', 0.728),
  ('DVGRDVCEFRDR', 'Saccharomyces cerevisiae', 0.677),
  ('FLFRLWGLLAEG', 'Saccharomyces cerevisiae', 0.583),
  ('ASSDLQDSPIGD', 'Saccharomyces cerevisiae', 0.665),
  ('PLPARFPPSPPS', 'Saccharomyces cerevisiae', 0.743),
  ('PLPPLLLPPPLP', 'Saccharomyces cerevisiae', 0.703),
  ('TPAPFSSHLVRR', 'Saccharomyces cerevisiae', 0.723),
  ('VCGGCCEVEVGM', 'Saccharomyces cerevisiae', 0.622),
  ('EVDKKYRNRKRK', 'Saccharomyces cerevisiae', 0.744),
  ('GGSARSIPVHVV', 'Saccharomyces cerevisiae', 0.584),
  ('VFIVVEFRLSLY', 'Saccharomyces cerevisiae', 0.231),
  ('EFWWPFDRRGVI', 'Saccharomyces cerevisiae', 0.748),
  ('SHRTRPSQTPTQ', 'Saccharomyces cerevisiae', 0.643),
  ('PPPPPPPLVPPS', 'Saccharomyces cerevisiae', 0.595),
  ('GFRVTTCASWIC', 'Saccharomyces cerevisiae', 0.177),
  ('GLGGYVIKYIMI', 'Saccharomyces cerevisiae', 0.572),
  ('PWTRMHRETRYL', 'Saccharomyces cerevisiae', 0.683),
  ('VRNPLRSFSGDA', 'Saccharomyces cerevisiae', 0.64),
  ('GNVLIRFSCSDS', 'Saccharomyces cerevisiae', 0.754);

All values here come from the supplement of paper PMC10724198.
